target: Neu5Ac(a2-3)Gal(b1-4)GlcNAc(b1-3)Gal(b1-4)GlcNAc(b1-3)Gal(b1-4)GlcNAc(b1-2)Man(a1-3)[Neu5Ac(a2-3)Gal(b1-4)GlcNAc(b1-3)Gal(b1-4)GlcNAc(b1-3)Gal(b1-4)GlcNAc(b1-2)Man(a1-6)]GalNAc; test: glycan array binding signal (z-score within array); higher = stronger binding; details: glycan notation: IUPAC condensed, linker removed
Many of the other results were omitted from the sample, so the strongest signals are more common in it than they were.
For each of the binders below, state its glycan array binding signal (z-score).
Give bare numbers.

INSERT INTO assay_data (binder, test_value) VALUES
  ('Actd5 (Actinidia), P84527 (protein) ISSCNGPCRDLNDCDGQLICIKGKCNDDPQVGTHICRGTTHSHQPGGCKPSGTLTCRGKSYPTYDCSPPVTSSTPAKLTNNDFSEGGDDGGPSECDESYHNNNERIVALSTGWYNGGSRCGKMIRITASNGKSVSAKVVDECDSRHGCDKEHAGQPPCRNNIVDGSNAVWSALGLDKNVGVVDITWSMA', 5.66);

Attention now shifts to the item below.
Q: Reported glycan array binding signal (z-score) for MPA (Maclura pomifera), P18674 (protein) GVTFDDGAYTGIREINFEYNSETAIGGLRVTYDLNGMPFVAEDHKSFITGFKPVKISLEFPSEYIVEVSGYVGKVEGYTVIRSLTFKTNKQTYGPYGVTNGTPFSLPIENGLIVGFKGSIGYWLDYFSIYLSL : what is it?
A: 3.56
